The origin of these recorded values is PubChem BioAssay (NCI).

Test system: LOX IMVI melanoma
Test: NCI tumour cell line growth inhibition, 48 h
PROPERTY LABEL: TGI

-- ask Look up TGI for this compound: CC(=O)NC(CCCN)C(=O)NCc1ccccc1 (stereo not given)
-- reply > 100 µM

-- ask Look up TGI for this compound: `O=c1[nH]nc(-c2cccc(Br)c2)[nH]1`
-- reply > 100 µM

-- ask Look up TGI for this compound: `N#CCCN(c1ccc(/C=C2\N=C(c3ccc(Cl)cc3)OC2=O)cc1)S(=O)(=O)c1ccccc1`
-- reply > 100 µM

-- ask Look up TGI for this compound: `COc1cccc(N=Cc2c3ccccc3c(=O)n3c2oc2ccccc23)c1`
-- reply 30.3 µM

-- ask Look up TGI for this compound: COC(=O)C(=O)C(C(=O)C(=O)Nc1ccc(C)cc1C)c1nc2ccccc2[nH]c1=O (stereo not given)
-- reply > 100 µM

Consider the following items and state reported TGI for each.
1. COc1ccc(-c2nc(-c3nc4ccc(C)cc4[nH]3)c3ccccn23)cc1
2. COc1cc([N+](=O)[O-])ccc1NC(=O)C(F)(F)F
3. CCCN=C(NC(=O)c1ccc(Cl)cc1)SC
4. O=C(CNc1ccc(Cl)cc1)Nn1c(-c2ccccc2)nc2ccccc2c1=O
5. Cc1c2c(nn1-c1ccc(S(=O)(=O)/N=C3\SCC(=O)N3C(=O)c3ccccc3)cc1)-c1ccccc1CC2

-- reply
1: 7.73 µM; 2: > 100 µM; 3: > 100 µM; 4: 4.12 µM; 5: > 100 µM
